Consider the following compounds; for each one, report its inhibition.
# test.target: Dual specificity tyrosine-phosphorylation-regulated kinase 2 (Homo sapiens) (UniProt Q92630);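 further: reported values are means of DYRK2 inhibition from screening the GSK PKIS collection at 1 µM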
# Sequence (Q92630 whole entry): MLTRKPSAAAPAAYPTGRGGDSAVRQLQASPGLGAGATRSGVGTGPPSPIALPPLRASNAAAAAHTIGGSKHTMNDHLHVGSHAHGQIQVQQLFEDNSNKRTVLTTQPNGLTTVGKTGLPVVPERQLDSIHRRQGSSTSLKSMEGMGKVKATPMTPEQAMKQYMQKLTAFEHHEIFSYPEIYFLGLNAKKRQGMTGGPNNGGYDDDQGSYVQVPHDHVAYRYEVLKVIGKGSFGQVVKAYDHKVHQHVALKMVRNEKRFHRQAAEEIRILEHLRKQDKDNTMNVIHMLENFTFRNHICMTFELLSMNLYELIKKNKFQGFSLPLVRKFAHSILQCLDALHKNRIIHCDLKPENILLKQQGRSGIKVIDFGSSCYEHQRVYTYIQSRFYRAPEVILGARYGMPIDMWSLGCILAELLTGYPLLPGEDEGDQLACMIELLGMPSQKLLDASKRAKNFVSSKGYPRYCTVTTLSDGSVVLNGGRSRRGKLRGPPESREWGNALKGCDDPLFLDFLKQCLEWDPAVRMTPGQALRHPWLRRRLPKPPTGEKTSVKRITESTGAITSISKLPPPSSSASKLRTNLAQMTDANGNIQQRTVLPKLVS
# run.parameters: at 1 µM
Reply numerically in %, unit not repeated.

Request: Using the record for CCCN1CCC=C(c2ccc(Nc3nc(Nc4ccccc4C(N)=O)c4cc[nH]c4n3)c(C)c2)C1 , report its inhibition.
Response: 44.2

Request: Using the record for Cn1cc(C=C2C(=O)Nc3cccnc32)c2ccccc21 , report its inhibition.
Response: 4.08

Request: Using the record for COc1cccc(-n2ncc3c(N/N=C/c4cccc(F)c4)ncnc32)c1 , report its inhibition.
Response: 16.8

Request: Using the record for CS(=O)(=O)CCN(CC#N)Cc1ccc(-c2ccc3ncnc(Nc4ccc(OCc5cccc(F)c5)c(Cl)c4)c3c2)o1 , report its inhibition.
Response: 0.76

Request: Using the record for COc1cc2ncn(-c3cc(OCc4ccccc4Cl)c(C(N)=O)s3)c2cc1OC , report its inhibition.
Response: 2.53

Request: Using the record for O=C1NC(=O)C(c2cccc(Cl)c2)=C1Nc1ccc(O)c(Cl)c1 , report its inhibition.
Response: 0.69

Request: Using the record for CCn1c(-c2nonc2N)nc2c(N3CCCC3)nccc21 , report its inhibition.
Response: -1.63

Request: Using the record for COC(=O)Nc1nc2cc(Oc3ccc(NC(=O)Nc4cccc(C(=O)O)c4)cc3)ccc2[nH]1 , report its inhibition.
Response: -0.17

Request: Using the record for CS(=O)(=O)Nc1ccc(N/C=C2\C(=O)Nc3ccccc32)cc1 , report its inhibition.
Response: -0.97

Request: Using the record for Cc1nnc(-c2ccc(C)c(-c3ccc(C(=O)Nc4cccc(C#N)c4)cc3)c2)o1 , report its inhibition.
Response: 1.2
